These measurements were taken from patent US6342502B1.

endpoint: melting point

Below: 6 compounds and their reported melting point.
smiles_representation=CC(C)Cn1c(=O)n(C)c(=O)c2c(Sc3cccc[n+]3[O-])c(Cc3cccc4ccccc34)sc21 endpoint="melting point" data_value="228 to 229 °C"
smiles_representation=CC(C)Cn1c(=O)n(C)c(=O)c2cc(Cc3ccccc3)sc21 endpoint="melting point" data_value="72 to 73 °C"
smiles_representation=CC(C)Cn1c(=O)n(C)c(=O)c2c(C(=O)NCCO)c(Cc3cccc4ccccc34)sc21 endpoint="melting point" data_value="193 to 194 °C"
smiles_representation=CC(C)Cn1c(=O)n(C)c(=O)c2c(S(=O)(=O)CCCC(=O)O)c(Cc3cccc4ccccc34)sc21 endpoint="melting point" data_value="174 to 181 °C"
smiles_representation=CC(C)Cn1c(=O)[nH]c(=O)c2cc(Cc3cccc4ccccc34)sc21 endpoint="melting point" data_value="189 to 190 °C"
smiles_representation=CC(C)Cn1c(=O)n(C)c(=O)c2cc(Cc3cccc4ccccc34)sc21 endpoint="melting point" data_value="137 to 138 °C"

Given the entry CC(C)Cn1c(=O)n(C)c(=O)c2c(Sc3ccccn3)c(Cc3cccc4ccccc34)sc21 , report its measured melting point.
148 to 149 °C

Given the entry CC(=O)NCCCSc1c(Cc2cccc3ccccc23)sc2c1c(=O)n(C)c(=O)n2CC(C)C , report its measured melting point.
114 to 117 °C

----------
endpoint: melting point

Below: 6 compounds and their reported melting point.
compound="CC(C)Cn1c(=O)n(C)c(=O)c2c(SCC(C)O)c(Cc3cccc4ccccc34)sc21 (racemic)" endpoint="melting point" data_value="126 to 128 °C"
compound=CC(C)Cn1c(=O)n(C)c(=O)c2c(C(=O)N(C)C)c(Cc3ccccc3)sc21 endpoint="melting point" data_value="144 to 146 °C"
compound=CC(C)Cn1c(=O)n(C)c(=O)c2cc(Cc3ccccc3C(N)=O)sc21 endpoint="melting point" data_value="183 °C"
compound="CC(C)Cn1c(=O)n(C)c(=O)c2cc(C(O)c3ccccc3)sc21 (stereo not shown)" endpoint="melting point" data_value="140 to 142 °C"
compound=CC(C)Cn1c(=O)n(C)c(=O)c2c(Sc3ccc(N)cn3)c(Cc3cccc4ccccc34)sc21 endpoint="melting point" data_value="208 to 209 °C"
compound=COC(=O)Nc1cccc(Sc2c(Cc3cccc4ccccc34)sc3c2c(=O)n(C)c(=O)n3CC(C)C)c1 endpoint="melting point" data_value="167 to 168 °C"

Given the entry C=C(C)Cn1c(=O)n(C)c(=O)c2cc(Cc3ccc(OC)cc3)sc21 , report its measured melting point.
111 °C

Given the entry CC(C)Cn1c(=O)n(C)c(=O)c2c(Sc3ccc([N+](=O)[O-])cn3)c(Cc3cccc4ccccc34)sc21 , report its measured melting point.
200 to 201 °C

----------
endpoint: melting point

compound=CC(C)Cn1c(=O)n(C)c(=O)c2c(Sc3cccc(N)c3)c(Cc3cccc4ccccc34)sc21 data_value="149 to 150 °C"
compound=CC(C)Cn1c(=O)n(C)c(=O)c2c(S(=O)(=O)c3cccc(O)c3)c(Cc3cccc4ccccc34)sc21 data_value="209 to 210 °C"
compound=CC(C)Cn1c(=O)n(C)c(=O)c2c(SCCCN=[N+]=[N-])c(Cc3cccc4ccccc34)sc21 data_value="94 to 96 °C"
compound=CC(C)Cn1c(=O)n(C)c(=O)c2c(SCCCC(=O)O)c(Cc3cccc4ccccc34)sc21 data_value="172 to 173 °C"
compound=CC(C)Cn1c(=O)n(C)c(=O)c2c(Sc3cccc(N(S(C)(=O)=O)S(C)(=O)=O)c3)c(Cc3cccc4ccccc34)sc21 data_value="216 to 217 °C"
compound=CC(C)Cn1c(=O)n(C)c(=O)c2c(NC(=O)OCCO)c(Cc3cccc4ccccc34)sc21 data_value="201 to 202 °C"
compound=CC(C)Cn1c(=O)n(C)c(=O)c2c(Sc3ccc(N)cc3)c(Cc3cccc4ccccc34)sc21 data_value="177 to 178 °C"
compound=CC(C)Cn1c(=O)n(C)c(=O)c2c(SCCCO)c(Cc3cccc(F)c3)sc21 data_value="99 to 100 °C"

Given the entry CC(=O)Nc1cccc(C(=O)Nc2ccc(Cc3cc4c(=O)n(C)c(=O)n(CC(C)C)c4s3)cc2)c1 , report its measured melting point.
230 °C

Given the entry CC(C)Cn1c(=O)n(C)c(=O)c2cc(C(O)c3cccc(F)c3)sc21 (stereo not shown) , report its measured melting point.
54 °C

Given the entry CC(=O)Nc1cccc(Sc2c(Cc3cccc4ccccc34)sc3c2c(=O)n(C)c(=O)n3CC(C)C)c1 , report its measured melting point.
173 to 174 °C

----------
Reported melting point is given for each of the following compounds.

compound="CC(C)Cn1c(=O)n(C)c(=O)c2c(SCCC(C)O)c(Cc3cccc4ccccc34)sc21 (racemic)" data_value="162 to 163 °C"
compound=COC(=O)CCCS(=O)(=O)c1c(Cc2cccc3ccccc23)sc2c1c(=O)n(C)c(=O)n2CC(C)C data_value="122 to 124 °C"
compound=CC(C)n1c(=O)n(C)c(=O)c2cc(Cc3ccccc3)sc21 data_value="91 to 93 °C"
compound=CC(C)Cn1c(=O)n(C)c(=O)c2c(C(=O)NCC(=O)O)c(Cc3cccc4ccccc34)sc21 data_value="218 to 219 °C"

Given the entry CC(C)Cn1c(=O)n(C)c(=O)c2cc(Cc3ccc(N)cc3)sc21 , report its measured melting point.
104 °C

Given the entry CC(C)Cn1c(=O)n(C)c(=O)c2cc(Cc3cccc(F)c3)sc21 , report its measured melting point.
76 to 78 °C

Given the entry CC(C)Cn1c(=O)n(C)c(=O)c2c(NC(=O)NCCO)c(Cc3cccc4ccccc34)sc21 , report its measured melting point.
227 to 228 °C

Given the entry CC(C)Cn1c(=O)n(C)c(=O)c2c(NC(=O)N(C)CCO)c(Cc3cccc4ccccc34)sc21 , report its measured melting point.
151 to 152 °C

----------
Reported melting point is given for each of the following compounds.
Give the value, in units of °C, as a plain number.

compound="CC(C)Cn1c(=O)n(C)c(=O)c2cc(C(O)c3ccc([N+](=O)[O-])cc3)sc21 (centres unmarked) [Example 90]" data_value=127

We now examine a further compound.
Given the entry CC(C)Cn1c(=O)n(C)c(=O)c2cc(C3OC(=N)c4ccccc43)sc21 (centres unmarked) [Example 81] , report its measured melting point.
152

----------
endpoint: melting point

Below: 2 compounds and their reported melting point.
compound=CC(C)Cn1c(=O)n(C)c(=O)c2c(Sc3cccc(O)c3)c(Cc3cccc4ccccc34)sc21 data_value="200 to 201 °C"
compound="CC(C)Cn1c(=O)n(C)c(=O)c2c(SCCCO)c(C(O)c3cccc4ccccc34)sc21 (racemic)" data_value="100 to 105 °C"

Given the entry COC(=O)CCCSc1c(Cc2cccc3ccccc23)sc2c1c(=O)n(C)c(=O)n2CC(C)C , report its measured melting point.
111 to 112 °C
